All values here come from the supplement of paper PMC10567573.

B1: ZNF649 (parent)
chain: LVAHQRYHTGKTPFVCPECGQPCS

# Variants of: B1
# method_notes: protein stability index of a GFP-peptide fusion (GPS, HEK-293T) (PSI 1-6); higher = more stable;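 note: lentivirally expressed fusions sorted by FACS into six bins by GFP to DsRed ratio, PSI derived from sequencing read proportions per bin multiplied by bin number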
# conditions_used: c terminus: a fixed tail appended
Exercise: for every item that follows, state its recorded protein stability index.
One number for each entry.

Examples from the recorded data:
{"columns": ["mutation_string", "reported"],
 "data": [
  ["L1G", 3.67],
  ["P22V", 3.5],
  ["E18T", 2.4],
  ["G20H", 2.88],
  ["L1F", 2.57],
  ["C16V", 2.58],
  ["Y7T", 3.28],
  ["Y7Q", 4.14],
  ["C23G", 2.87]
]}

For the next question, use this variant.
[ask] protein stability index lookup needed for `H4R` , thanks.
[reply] 2.77
